For each record, write down the corresponding melting point.

## Input Fill in the blank: the reported melting point of Cc1nc2c(c(=O)n1Cc1ccc(-c3noc(C(F)(F)F)n3)cc1)CCCC2 is ____.
## Output 132 to 135 °C

## Input Fill in the blank: the reported melting point of O=C(C(=NOCC(F)(F)F)c1ccc(-c2noc(C(F)(F)F)n2)cc1)n1ncccc1=O is ____.
## Output 82 to 98 °C

## Input Fill in the blank: the reported melting point of CCON=C1CCN(C(=O)Cc2ccc(-c3noc(C(F)(F)F)n3)cc2)CC1S(C)(=O)=O (stereo not drawn) is ____.
## Output 128 to 130 °C

## Input Fill in the blank: the reported melting point of COCCON=CCOc1cc(=O)n(Cc2ccc(-c3noc(C(F)(F)F)n3)cc2)cn1 is ____.
## Output 94 to 96 °C

## Input Fill in the blank: the reported melting point of CSc1cnn(-c2ccc(-c3noc(C(F)(F)F)n3)cc2)c(=O)c1 is ____.
## Output 151 to 153 °C

## Input Fill in the blank: the reported melting point of CCON=C1CN(C(=O)C(=NOC)c2ccc(-c3noc(C(F)(F)F)n3)cc2)C1 is ____.
## Output 147 to 149 °C

## Input Fill in the blank: the reported melting point of Cc1nc2c(cnn2C)c(=O)n1Cc1ccc(-c2noc(C(F)(F)F)n2)cc1 is ____.
## Output 118 to 120 °C

## Input Fill in the blank: the reported melting point of CCCON=C1CN(C(=O)C(SCC)c2ccc(-c3noc(C(F)(F)F)n3)cc2)C1 (stereo not drawn) is ____.
## Output 83 to 85 °C

## Input Fill in the blank: the reported melting point of CCON=C1CN(C(=O)C(SC)c2ccc(-c3noc(C(F)(F)F)n3)cc2)C1 (stereo not drawn) is ____.
## Output 108 to 110 °C

## Input Fill in the blank: the reported melting point of O=C(Cc1ccc(-c2noc(C(F)(F)F)n2)cc1)N1CCC(=NOC2CCCCO2)CC1 (stereo not drawn) is ____.
## Output 104 to 106 °C

## Input Fill in the blank: the reported melting point of Cc1nn(C)c2cnn(Cc3ccc(-c4noc(C(F)(F)F)n4)cc3)c(=O)c12 is ____.
## Output 187 to 190 °C

## Input Fill in the blank: the reported melting point of CSCCON=C1CCN(C(=O)Cc2ccc(-c3noc(C(F)(F)F)n3)cc2)CC1 is ____.
## Output 68 to 69 °C

----------
QUANTITY_NAME: melting point

## Input Fill in the blank: the reported melting point of CON=CCOc1ncn(Cc2ccc(-c3noc(C(F)(F)F)n3)cc2)c(=O)c1Cl is ____.
## Output 201 to 203 °C

## Input Fill in the blank: the reported melting point of Cn1ncc2c(=O)n(Cc3ccc(-c4noc(C(F)(F)F)n4)cc3)cnc21 is ____.
## Output 225 to 228 °C

## Input Fill in the blank: the reported melting point of CON=C1CCN(C(=O)Cc2ccc(-c3noc(C(F)(F)F)n3)cc2)CC1SC (centres unmarked) is ____.
## Output 120 to 121 °C

## Input Fill in the blank: the reported melting point of CCON=C1CN(C(=O)C(=O)c2ccc(-c3noc(C(F)(F)F)n3)cc2)C1 is ____.
## Output 139 to 141 °C

## Input Fill in the blank: the reported melting point of O=c1c2c(ncn1Cc1ccc(-c3noc(C(F)(F)F)n3)cc1)CCCC2 is ____.
## Output 157 to 160 °C

## Input Fill in the blank: the reported melting point of CCON=C1CN(C(=O)Cc2ccc(-c3noc(C(F)(F)F)n3)cc2)C1 is ____.
## Output 130 to 134 °C

## Input Fill in the blank: the reported melting point of CCON=C1CCN(C(=O)Cc2ccc(-c3noc(C(F)(F)F)n3)cc2)CC1SC (centres unmarked) is ____.
## Output 80 to 82 °C

## Input Fill in the blank: the reported melting point of Cc1ccn(-c2ccc(-c3noc(C(F)(F)F)n3)cc2)c(=O)c1 is ____.
## Output 151 to 154 °C

## Input Fill in the blank: the reported melting point of CS(=O)(=O)c1cnn(-c2ccc(-c3noc(C(F)(F)F)n3)cc2)c(=O)c1 is ____.
## Output 186 to 188 °C

## Input Fill in the blank: the reported melting point of O=c1c2c(ncn1Cc1ccc(-c3noc(C(F)(F)F)n3)cc1)CCC2 is ____.
## Output 165 to 168 °C

## Input Fill in the blank: the reported melting point of Cc1ccc(=O)n(-c2ccc(-c3noc(C(F)(F)F)n3)cc2)n1 is ____.
## Output 78 to 83 °C

## Input Fill in the blank: the reported melting point of Cc1nn(C)c2nc(C)n(Cc3ccc(-c4noc(C(F)(F)F)n4)cc3)c(=O)c12 is ____.
## Output 163 to 166 °C

## Input Fill in the blank: the reported melting point of CON=CCOc1cc(=O)n(Cc2ccc(-c3noc(C(F)(F)F)n3)cc2)cn1 is ____.
## Output 143 to 148 °C

## Input Fill in the blank: the reported melting point of O=c1cccnn1-c1ccc(-c2noc(C(F)(F)F)n2)cc1 is ____.
## Output 97 to 100 °C
